biological target: T1, Rad9-pT peptide with SGS linker (SGS-SLEVpTEADATFYAKK) (yeast, SMILES …); test: phage ELISA on immobilized Rad9-pT, phage normalised to the Flag epitope; anti-M13-HRP, A405
T1 construct: also called cognate pT peptide; Rad-pT
T1 peptide: Biotin-SGSSLEV[pT]EADATFYAKK-NH2
Square brackets hold non-standard residues; d marks the D form. * marks the point of attachment. Biotin = O=C1N[C@H]2[C@H](CS[C@H]2CCCCC(=O)*)N1; pT = C[C@@H](OP(=O)(O)O)[C@H](N)C(=O)O
READOUT: binding result

Q (designed binder, also called S34Q) FHA1 domain displayed on M13 protein III: MENITQPTQQSTQATQRFLIEKFSQEQIGENIVQRVISTTGQIPIRDLSADISQVLKEKRSIKKVWTFGRNPACDYHLGNISRLSNKHFQILLGEDGNLLLNDISTNGTWLNGQKVEKNSNQLLSQGDEITVGVGVESDILSLVIFINDKFKQSLEQNKVDRIRSNLKNT    no binding
P (designed binder, also called S34P) FHA1 domain displayed on M13 protein III: MENITQPTQQSTQATQRFLIEKFSQEQIGENIVPRVISTTGQIPIRDLSADISQVLKEKRSIKKVWTFGRNPACDYHLGNISRLSNKHFQILLGEDGNLLLNDISTNGTWLNGQKVEKNSNQLLSQGDEITVGVGVESDILSLVIFINDKFKQSLEQNKVDRIRSNLKNT    no binding
C (designed binder, also called S34C) FHA1 domain displayed on M13 protein III: MENITQPTQQSTQATQRFLIEKFSQEQIGENIVCRVISTTGQIPIRDLSADISQVLKEKRSIKKVWTFGRNPACDYHLGNISRLSNKHFQILLGEDGNLLLNDISTNGTWLNGQKVEKNSNQLLSQGDEITVGVGVESDILSLVIFINDKFKQSLEQNKVDRIRSNLKNT    no binding
